# Tested on: SW-620
# Procedure text: NCI tumour cell line growth inhibition, 48 h
Calls of active or inactive are those of the source. No stated cut-off is given here; in the data, active = GI50 up to about 1.1 µM and inactive = higher.
Readout name: GI50

>>> meas_value("CC(=O)O[C@H]1CC[C@@]2(C)C(=CC[C@@H]3C2CC[C@]2(C)C(=O)NC(=O)CC32)C1 (some centres not stated)")
"> 56.6 µM (inactive)"
>>> meas_value("CC1Cc2c(N)nc(N3CCOCC3)nc2NC1=O (configuration not stated)")
"> 100 µM (inactive)"
>>> meas_value("C/C(CC1C2CCCC1C2)=N\\NC(N)=O (configuration not stated)")
"> 100 µM (inactive)"
>>> meas_value("Cc1c(Cl)nc(Cl)nc1Cl")
"1.27 µM (inactive)"
>>> meas_value("CC(C(=O)C(C)O[Si](c1ccccc1)(c1ccccc1)C(C)(C)C)=P(c1ccccc1)(c1ccccc1)c1ccccc1 (configuration not stated)")
"3.91 µM (inactive)"
>>> meas_value("COc1ccc(C(=O)c2[nH]c(Nc3ccc(Cl)cc3)c(C(=S)Nc3ccccc3)c2N)cc1")
"> 100 µM (inactive)"
>>> meas_value("Cc1cc(-n2c(/C=C/c3ccc(Cl)cc3)nc3cc(Cl)ccc3c2=O)on1")
"48 µM (inactive)"
>>> meas_value("Cc1ccc2[nH]c3c(c2c1)C1CCC(C(C)(C)C)CC1C1C(=O)N(c2ccc(Oc4ccccc4)cc2)C(=O)C31 (configuration not stated)")
"19.3 µM (inactive)"
>>> meas_value("CC1C=CC(=O)C(n2cc(F)c(=O)[nH]c2=O)O1 (configuration not stated)")
"17.6 µM (inactive)"
>>> meas_value("Cc1nc(Nc2ccc(Cl)cc2)sc1C(=O)NNC(=S)NN")
"19.5 µM (inactive)"
>>> meas_value("Sc1nn2c(Cc3ccccc3)nnc2s1")
"> 100 µM (inactive)"
>>> meas_value("COC(=O)C1=CC2CC1C(S(=O)(=O)c1ccccc1)C2S(=O)(=O)c1ccccc1 (configuration not stated)")
"4.59 µM (inactive)"
>>> meas_value("COc1ccc(NC(=O)NNS(=O)(=O)c2ccc(C)cc2)cc1")
"> 100 µM (inactive)"
>>> meas_value("COc1ccc(NC(=O)CC(=O)n2nc(C)c(/N=N/c3ccccc3C(=O)O)c2C)cc1")
"> 100 µM (inactive)"
>>> meas_value("O=NN(CCF)C(=O)NC1CCSCC1")
"> 100 µM (inactive)"
>>> meas_value("CCOC(=O)c1cnc2[nH]c(=O)c3ccccc3n2c1=O")
"> 100 µM (inactive)"
>>> meas_value("O=[N+]([O-])c1ccc(Nc2nc3ccccc3s2)cc1")
"35 µM (inactive)"
>>> meas_value("O=c1c2cc(I)ccc2nc(-c2cccs2)n1-c1ccc(O)cc1")
"22.2 µM (inactive)"
>>> meas_value("C[N+]1([O-])CCC(O)(C2CC2)CC1 (configuration not stated)")
"> 100 µM (inactive)"
>>> meas_value("CCCCCCCCCCCCC/C=C/[C@H]1[C@@H](C(=O)OC)N1[S+]([O-])c1ccc(C)cc1 (some centres not stated)")
"> 100 µM (inactive)"
>>> meas_value("C=C(C)C1Cc2c(cc3c(c2O)c(=O)c2ccccc2n3C)O1 (configuration not stated)")
"1.81 µM (inactive)"
>>> meas_value("COc1ccc2c(c1)[n+]([O-])c(C(=O)C/C(=N/NC(=O)C[N+](C)(C)C)C(=O)Nc1cccc(C)c1C)c(C)[n+]2[O-]")
"> 100 µM (inactive)"
